B1: MLL5 (parent)
chain: TYLCERCQPRNLDKERAVLLQRRK

variants of: B1; assay: protein stability index of a GFP-peptide fusion (GPS, HEK-293T) (PSI 1-6); higher = more stable; conditions: c terminus: a fixed tail appended;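 note: lentivirally expressed fusions sorted by FACS into six bins by GFP to DsRed ratio, PSI derived from sequencing read proportions per bin multiplied by bin number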
measured property: protein stability index

Query :: # input variant: "Y2D" ; wanted: its protein stability index
Result :: 2.78

Query :: Next entry: "A17H"
Result :: 2

Query :: Next entry: "V18H"
Result :: 2.16

Query :: Next entry: "L12T"
Result :: 2.63

Query :: Next entry: "L20T"
Result :: 1.58

Query :: Next entry: "L20Y"
Result :: 1.76

Query :: Next entry: "R10H"
Result :: 1.72

Query :: Next entry: "L19M"
Result :: 2.71

Query :: Next entry: "R23F"
Result :: 2.03

Query :: Next entry: "C7D"
Result :: 4.49

Query :: Next entry: "N11E"
Result :: 1.52

Query :: Next entry: "Y2H"
Result :: 2.58

Query :: Next entry: "C7I"
Result :: 3.76

Query :: Next entry: "A17T"
Result :: 1.95

Query :: Next entry: "L19E"
Result :: 2.76

Query :: Next entry: "D13V"
Result :: 1.88

Query :: Next entry: "L20M"
Result :: 2.4

Query :: Next entry: "C4S"
Result :: 3.95

Query :: Next entry: "R23L"
Result :: 1.47

Query :: Next entry: "R6V"
Result :: 2.42

Query :: Next entry: "K14S"
Result :: 2.51

Query :: Next entry: "C4L"
Result :: 2.71
